- Tested on: SNB-75
- assay-method-text: NCI tumour cell line growth inhibition, 48 h
Hit rate of the full screen: of about 54,000 sequences, about 4,000 (7.4%) were called active. A selection follows. Potency and affinity values are given separately.
Lab note: anything with GI50 below 3 µM is marked satisfied; values at 3 µM or higher are marked not satisfied.

substance	study-target	qualitative-label
CISPLATIN, CHEMBL11359	SNB-75	satisfied
[Bis(aminomethyl)diethylsilane]tetrachloroplatinum(IV), CHEMBL2146203	SNB-75	not satisfied
[Bis(aminomethyl)tetramethylenesilane]dichloropaltinum(II), CHEMBL2146205	SNB-75	not satisfied
[Bis(aminomethyl)pentamethylenesilane]dichloropaltinum(II), CHEMBL2146202	SNB-75	satisfied
[Bis(aminomethyl)pentamethylenesilane]tetrachloropaltinum(IV), CHEMBL2146204	SNB-75	satisfied
[Bis(aminomethyl)dimethylsilane]tetrachloroplatinum(IV), CHEMBL2146190	SNB-75	not satisfied
cis-Bis[[(trimethylsilyl)methyl]amino]tetrachloroplatinum(IV), CHEMBL2146191	SNB-75	not satisfied
